Source listed as BindingDB's records for patent US20250313563.

pIC50 values for the compounds below.
tgt: Glycogen synthase kinase-3 beta (Homo sapiens, UniProt P49841)
Sequence (P49841 whole entry): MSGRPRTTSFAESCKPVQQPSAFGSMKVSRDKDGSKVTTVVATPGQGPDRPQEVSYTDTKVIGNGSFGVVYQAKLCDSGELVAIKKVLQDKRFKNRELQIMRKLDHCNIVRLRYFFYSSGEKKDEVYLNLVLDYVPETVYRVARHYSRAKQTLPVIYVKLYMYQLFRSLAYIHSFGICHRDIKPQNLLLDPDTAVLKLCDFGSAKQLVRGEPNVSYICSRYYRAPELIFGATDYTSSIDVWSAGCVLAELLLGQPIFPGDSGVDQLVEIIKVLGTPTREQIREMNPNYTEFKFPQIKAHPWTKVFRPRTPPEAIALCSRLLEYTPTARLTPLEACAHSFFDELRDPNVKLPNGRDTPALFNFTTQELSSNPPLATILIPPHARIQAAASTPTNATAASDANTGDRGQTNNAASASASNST
experimental_details: TR-FRET Assay
pIC50: −log10 of the molar value.
reported_property: pIC50

compound=Cn1cc([C@H]2CC[C@]3(CC2)C2=C(N=NC2)NC2=C3C(=O)CC(C)(C)C2)cn1 tgt="Glycogen synthase kinase-3 beta (Homo sapiens, UniProt P49841)" experimental_result="5.30 to 6.00"
compound="CC[C@]1(c2cccc(-c3ccnn3C)c2)C2=C(CC(C)(C)CC2=O)NC2N=NC(C(F)(F)F)=C21 (some centres undefined)" tgt="Glycogen synthase kinase-3 beta (Homo sapiens, UniProt P49841)" experimental_result="5.30 to 6.00"
compound="CC[C@]1(c2cccc(C(F)(F)F)c2)C2=C(CC(C)(C)CC2=O)NC2N=NC(C)=C21 (some centres undefined)" tgt="Glycogen synthase kinase-3 beta (Homo sapiens, UniProt P49841)" experimental_result="< 5.78"
compound="CC[C@]1(c2ccccc2)C2=CN=NC2NC2=C1C(=O)CC(C)(C)[C@@H]2F (some centres undefined)" tgt="Glycogen synthase kinase-3 beta (Homo sapiens, UniProt P49841)" experimental_result="< 5.30"

---

tgt: Glycogen synthase kinase-3 beta (Homo sapiens)
pIC50: −log10 of the molar value.
reported_property: pIC50

compound="CC[C@@]1(c2cccc(-c3ccncc3F)c2)C2=C(CC(C)(C)NC2=O)NC2N=NC(C)=C21 (stereo not given in full)" tgt="Glycogen synthase kinase-3 beta (Homo sapiens)" experimental_result="> 7.00"
compound="CCC1(c2cccc(-c3cncn3C)c2)C2=C(CC(C)(C)NC2=O)NC2N=NC(C)=C21 (stereo not given)" tgt="Glycogen synthase kinase-3 beta (Homo sapiens)" experimental_result="> 7.00"
compound="CC[C@]1(c2cccc(-c3ccncc3OC)c2)C2=CN=NC2NC2=C1C(=O)CC(C)(C)C2 (stereo not given in full)" tgt="Glycogen synthase kinase-3 beta (Homo sapiens)" experimental_result="6.00 to 7.00"
compound="CC[C@@]1(c2cccc(-c3cc[n+](O)cc3[S@@+](C)[O-])c2)C2=CN=NC2NC2=C1C(=O)CC(C)(C)C2 (stereo not given in full)" tgt="Glycogen synthase kinase-3 beta (Homo sapiens)" experimental_result="5.30 to 6.00"
compound="CCC1(c2ccccc2)C2=C(N=NC2)NC(C)=C1C(C)=O (stereo not given)" tgt="Glycogen synthase kinase-3 beta (Homo sapiens)" experimental_result="< 5.30"
compound=CC1(C)CC(=O)C2=C(C1)NC1=C(CN=N1)[C@@]21CCO[C@H](C(F)(F)F)C1 tgt="Glycogen synthase kinase-3 beta (Homo sapiens)" experimental_result="6.00 to 7.00"
compound="CC[C@]1(c2cc(-c3ccncc3)ccc2C)C2=CN=NC2NC2=C1C(=O)CC(C)(C)C2 (stereo not given in full)" tgt="Glycogen synthase kinase-3 beta (Homo sapiens)" experimental_result="6.00 to 7.00"
compound=CO[C@H]1C[C@@]2(C1)C1=C(N=NC1)NC1=C2C(=O)CC(C)(C)C1 tgt="Glycogen synthase kinase-3 beta (Homo sapiens)" experimental_result="< 5.30"
compound="CC[C@]1(c2cccc(C(F)(F)F)c2)C2=CN=NC2NC2=C1C(=O)NC[C@H]2C (stereo not given in full)" tgt="Glycogen synthase kinase-3 beta (Homo sapiens)" experimental_result="6.00 to 7.00"
compound=CC1(C)CC(=O)C2=C(C1)NC1=C(CN=N1)[C@@]21CCC[C@@H](C#N)C1 tgt="Glycogen synthase kinase-3 beta (Homo sapiens)" experimental_result="6.00 to 7.00"
